- Method: Oral administration to rats, plasma concentration and absorption ratio (Example 1, Table 1)
- Type: in vivo
- Experimental Context: rat, in vivo, SD-strain male rats, 20 mg/kg, suspended in 0.5% methylcellulose
Readout Kind: Fa
# number then unit; no other words

Prompt: Query: Fa; subject: Cc1c(OCC(F)(F)C(F)F)ccnc1CSc1nc2ccccc2[nH]1
Completion: 5.4%

---

- Method: Oral administration to rats, plasma concentration and absorption ratio (Example 2, Table 2)
- Format: in vivo, SD-strain male rats
- Experimental Context: rat, plasma, 20 mg/kg
Readout Kind: Tmax (min)
Answer with a number only, understood to be in min.

Prompt: Tmax for Cc1c(OCC(F)(F)C(F)F)ccnc1CSc1nc2ccccc2[nH]1 [Compound A] ?
Completion: 15

---

- Method: Oral administration to rats, plasma concentration and absorption ratio (Example 2, Table 2)
- Assay type: in vivo, SD-strain male rats
- Experimental Context: rat, in vivo, 20 mg/kg
Readout Kind: Fa (%)
Kindly answer with a numeric value in %, unit omitted.

Prompt: Fa lookup needed for Cc1c(OCC(F)(F)C(F)F)ccnc1CSc1nc2ccccc2[nH]1 [Compound A] , thanks.
Completion: 5.4

---

- Method: Oral administration to rats, plasma concentration and absorption ratio (Example 2, Table 2)
- Format: in vivo, SD-strain male rats
- Experimental Context: rat, plasma, 20 mg/kg
- Procedure: From this emulsion, a w/o/w type emulsion was prepared using a homogenizer in 0.5% PVA aqueous solution (1000 ml). Then, the emulsion was slowly stirred with a conventional propeller stirrer for 3 hours. […] The microcapsules were suspended in 0.5% methylcellulose, and orally administered to SD-strain male rats (body weight: 250 g) in a dose of 20 mg/kg. […] In both cases, the plasma concentration of the drug and the absorption ratio were determined.
Readout Kind: Cmax (ng/mL)
The answer is to be given in ng/mL; state only the numeric part.

Prompt: For the compound Cc1c(OCC(F)(F)C(F)F)ccnc1CSc1nc2ccccc2[nH]1 [Compound A] , what Cmax is on record?
Completion: 218

---

- Method: Oral administration to rats, plasma concentration and absorption ratio (Example 1, Table 1)
- Format: in vivo
- Experimental Context: rat, plasma, SD-strain male rats, 20 mg/kg, suspended in 0.5% methylcellulose, read-out: Tmax (time required to obtain the peak blood level)
Readout Kind: Tmax (min)
Dear colleague, please return just the value in min, with no unit written.

Prompt: Using the record for Cc1c(OCC(F)(F)C(F)F)ccnc1CSc1nc2ccccc2[nH]1 , report its Tmax.
Completion: 15
